Target: Histone deacetylase 4 (Homo sapiens, UniProt P56524)
Assay: Inhibition of human recombinant N-terminal GST-tagged C-terminal His-tagged HDAC4 (627 to 1084 residues) expressed in insect cells using Boc-K(TFA)-AMC as substrate incubated for 60 mins by fluorescence assay
Measurement kind: IC50 (µM)
Numeric only. Scale: µM

Would you mind telling me what IC50 value was observed for O=C(CCCc1csc(/C=C/c2ccccc2)n1)NO ?
19.7

----------
Target: Histone deacetylase 1 (Homo sapiens)
Sequence (Q13547 whole entry, the tested form may be a part): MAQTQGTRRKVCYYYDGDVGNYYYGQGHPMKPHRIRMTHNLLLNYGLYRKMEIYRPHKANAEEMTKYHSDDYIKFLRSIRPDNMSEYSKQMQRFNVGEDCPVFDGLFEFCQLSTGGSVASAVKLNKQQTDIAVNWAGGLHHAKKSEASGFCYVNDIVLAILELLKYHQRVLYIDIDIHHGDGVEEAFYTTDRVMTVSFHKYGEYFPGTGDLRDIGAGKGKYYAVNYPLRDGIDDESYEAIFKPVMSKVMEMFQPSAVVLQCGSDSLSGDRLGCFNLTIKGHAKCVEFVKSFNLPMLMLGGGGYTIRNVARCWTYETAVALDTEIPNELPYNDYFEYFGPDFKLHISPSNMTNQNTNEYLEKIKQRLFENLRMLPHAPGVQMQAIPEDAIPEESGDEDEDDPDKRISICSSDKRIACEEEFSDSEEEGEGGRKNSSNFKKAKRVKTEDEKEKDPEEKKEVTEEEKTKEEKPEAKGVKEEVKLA
Measurement kind: IC50 (µM)
Numeric only. Scale: µM

Kindly state the measured IC50 obtained for O=C(CCCc1csc(/C=C/c2ccccc2)n1)NO with Histone deacetylase 1 (Homo sapiens).
13.8

----------
Molecular target: Polyamine deacetylase HDAC10 (Homo sapiens)
Sequence (Q969S8 whole entry): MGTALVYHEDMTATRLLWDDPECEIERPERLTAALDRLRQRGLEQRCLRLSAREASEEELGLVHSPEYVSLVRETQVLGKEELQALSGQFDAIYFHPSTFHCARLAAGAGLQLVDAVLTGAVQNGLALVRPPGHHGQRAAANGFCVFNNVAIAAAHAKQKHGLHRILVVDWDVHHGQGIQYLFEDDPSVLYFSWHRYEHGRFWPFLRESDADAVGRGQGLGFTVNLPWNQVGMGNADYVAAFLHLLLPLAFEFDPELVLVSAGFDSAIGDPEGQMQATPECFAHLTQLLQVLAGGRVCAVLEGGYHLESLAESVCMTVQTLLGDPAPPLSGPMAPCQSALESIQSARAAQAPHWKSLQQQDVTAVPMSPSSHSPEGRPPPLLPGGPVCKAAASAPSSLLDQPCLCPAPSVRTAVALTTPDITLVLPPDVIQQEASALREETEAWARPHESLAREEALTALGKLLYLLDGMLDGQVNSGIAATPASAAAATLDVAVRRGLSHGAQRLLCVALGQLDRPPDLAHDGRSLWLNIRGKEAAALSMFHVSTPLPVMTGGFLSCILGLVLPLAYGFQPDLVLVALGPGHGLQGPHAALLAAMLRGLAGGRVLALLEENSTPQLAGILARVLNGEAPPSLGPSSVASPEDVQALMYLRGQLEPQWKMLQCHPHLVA
Assay: Inhibition of human recombinant HDAC10 using RHK-K(Ac)-AMC as substrate
Measurement kind: pIC50
Units for pIC50: none; it is -log10 of a concentration expressed in mol/L.

Would you mind telling me what pIC50 value was observed for O=C(CCCc1csc(/C=C/c2ccccc2)n1)NO ?
4.11

----------
Target: Histone deacetylase 3/Nuclear receptor corepressor 2 (HDAC3/NCoR2) (Homo sapiens)
Sequence (O15379 whole entry): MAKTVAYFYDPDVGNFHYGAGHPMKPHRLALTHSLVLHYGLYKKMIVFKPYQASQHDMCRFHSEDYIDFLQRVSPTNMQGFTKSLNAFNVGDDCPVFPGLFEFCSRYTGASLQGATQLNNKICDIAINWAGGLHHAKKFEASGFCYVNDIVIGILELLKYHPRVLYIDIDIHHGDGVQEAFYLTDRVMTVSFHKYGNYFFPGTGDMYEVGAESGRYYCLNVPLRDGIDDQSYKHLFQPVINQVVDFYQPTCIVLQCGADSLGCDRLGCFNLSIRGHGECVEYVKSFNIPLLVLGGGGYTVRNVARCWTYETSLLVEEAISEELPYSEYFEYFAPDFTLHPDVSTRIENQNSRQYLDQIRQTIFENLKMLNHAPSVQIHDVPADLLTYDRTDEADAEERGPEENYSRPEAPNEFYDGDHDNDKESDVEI
Sequence (Q9Y618 whole entry, further chain): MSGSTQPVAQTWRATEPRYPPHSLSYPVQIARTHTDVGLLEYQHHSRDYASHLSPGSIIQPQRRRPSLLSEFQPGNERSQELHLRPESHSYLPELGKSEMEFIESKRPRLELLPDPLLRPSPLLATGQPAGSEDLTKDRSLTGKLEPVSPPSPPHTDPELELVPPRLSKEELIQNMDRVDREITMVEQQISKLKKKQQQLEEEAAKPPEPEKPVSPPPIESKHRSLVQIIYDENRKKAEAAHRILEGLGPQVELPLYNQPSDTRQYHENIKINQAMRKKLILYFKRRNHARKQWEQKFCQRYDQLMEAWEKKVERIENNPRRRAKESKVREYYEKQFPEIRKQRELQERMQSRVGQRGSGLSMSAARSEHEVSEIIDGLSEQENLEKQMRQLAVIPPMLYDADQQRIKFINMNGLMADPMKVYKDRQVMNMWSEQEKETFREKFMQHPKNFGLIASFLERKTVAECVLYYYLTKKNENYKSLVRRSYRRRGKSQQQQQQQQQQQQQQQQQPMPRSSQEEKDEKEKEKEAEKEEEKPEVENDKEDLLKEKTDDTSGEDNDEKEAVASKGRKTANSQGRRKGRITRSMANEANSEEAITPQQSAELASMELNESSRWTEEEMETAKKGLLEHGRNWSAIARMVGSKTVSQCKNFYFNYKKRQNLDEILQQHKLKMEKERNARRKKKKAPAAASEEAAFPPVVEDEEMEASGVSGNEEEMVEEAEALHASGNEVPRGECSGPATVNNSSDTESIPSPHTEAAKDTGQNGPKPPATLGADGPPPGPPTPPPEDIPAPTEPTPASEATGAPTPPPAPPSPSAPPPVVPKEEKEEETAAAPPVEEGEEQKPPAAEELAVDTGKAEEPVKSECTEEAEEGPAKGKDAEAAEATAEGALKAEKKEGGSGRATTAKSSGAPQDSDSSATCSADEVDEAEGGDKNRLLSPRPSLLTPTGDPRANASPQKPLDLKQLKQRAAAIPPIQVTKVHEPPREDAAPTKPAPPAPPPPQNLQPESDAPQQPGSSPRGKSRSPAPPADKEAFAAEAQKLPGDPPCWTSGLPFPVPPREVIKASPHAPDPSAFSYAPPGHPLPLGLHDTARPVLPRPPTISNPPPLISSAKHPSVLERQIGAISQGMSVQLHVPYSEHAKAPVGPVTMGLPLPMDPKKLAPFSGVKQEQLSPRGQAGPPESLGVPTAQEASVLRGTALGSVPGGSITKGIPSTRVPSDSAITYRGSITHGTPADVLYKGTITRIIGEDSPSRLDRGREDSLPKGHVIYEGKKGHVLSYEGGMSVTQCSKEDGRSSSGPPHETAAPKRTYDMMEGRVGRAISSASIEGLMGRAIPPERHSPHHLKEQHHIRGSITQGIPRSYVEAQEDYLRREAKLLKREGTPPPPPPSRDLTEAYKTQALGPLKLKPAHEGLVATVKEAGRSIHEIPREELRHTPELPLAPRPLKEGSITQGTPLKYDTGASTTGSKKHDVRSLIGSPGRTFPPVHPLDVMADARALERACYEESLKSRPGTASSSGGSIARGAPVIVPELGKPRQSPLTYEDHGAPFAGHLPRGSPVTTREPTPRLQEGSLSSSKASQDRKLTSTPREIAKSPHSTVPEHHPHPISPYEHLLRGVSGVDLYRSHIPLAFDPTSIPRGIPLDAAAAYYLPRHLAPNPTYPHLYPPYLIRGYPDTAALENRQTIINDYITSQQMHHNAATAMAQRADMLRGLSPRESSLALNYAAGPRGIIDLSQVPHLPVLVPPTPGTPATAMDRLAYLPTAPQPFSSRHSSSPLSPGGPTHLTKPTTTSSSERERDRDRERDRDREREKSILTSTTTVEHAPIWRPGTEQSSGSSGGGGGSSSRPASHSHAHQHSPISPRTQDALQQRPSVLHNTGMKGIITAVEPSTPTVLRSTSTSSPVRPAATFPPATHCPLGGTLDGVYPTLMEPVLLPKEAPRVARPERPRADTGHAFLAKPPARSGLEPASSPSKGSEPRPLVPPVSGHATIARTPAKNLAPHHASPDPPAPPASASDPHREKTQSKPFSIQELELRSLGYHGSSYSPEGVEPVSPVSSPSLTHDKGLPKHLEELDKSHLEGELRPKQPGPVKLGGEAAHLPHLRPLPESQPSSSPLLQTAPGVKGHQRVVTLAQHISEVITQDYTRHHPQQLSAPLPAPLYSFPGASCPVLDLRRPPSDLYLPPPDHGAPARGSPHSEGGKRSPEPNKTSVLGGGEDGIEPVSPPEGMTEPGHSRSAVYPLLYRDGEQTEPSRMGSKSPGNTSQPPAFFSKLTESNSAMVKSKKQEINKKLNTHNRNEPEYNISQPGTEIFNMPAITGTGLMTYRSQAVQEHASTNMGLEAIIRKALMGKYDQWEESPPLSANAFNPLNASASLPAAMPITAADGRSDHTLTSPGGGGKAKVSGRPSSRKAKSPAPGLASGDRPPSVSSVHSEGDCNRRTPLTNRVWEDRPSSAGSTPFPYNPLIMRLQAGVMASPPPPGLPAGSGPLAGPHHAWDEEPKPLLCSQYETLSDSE
Measurement kind: IC50 (µM)
Numeric only. Scale: µM

Would you mind telling me what IC50 value was observed for O=C(CCCc1csc(/C=C/c2ccccc2)n1)NO ?
17.8

----------
Target: Histone deacetylase 2 (Homo sapiens)
Test: Inhibition of full length human recombinant C-terminal GST-tagged HDAC2 (1 to 488 residues) expressed in insect cells using RHK-K(Ac)-AMC as substrate incubated for 60 mins by fluorescence assay
pIC50: −log10 of the molar value.
Measurement kind: pIC50

Would you mind telling me what pIC50 value was observed for O=C(CCCc1csc(/C=C/c2ccccc2)n1)NO ?
< 5.00

----------
Molecular target: Histone deacetylase 1 (Homo sapiens)
Assay: Inhibition of full length human recombinant C-terminal FLAG-His-tagged HDAC1 (1 to 482 residues) expressed in Sf21 cells using RHK-K(Ac)-AMC as substrate incubated for 60 mins by fluorescence assay
Measurement kind: IC50

Would you mind telling me what IC50 value was observed for O=C(CCCc1csc(/C=C/c2ccccc2)n1)NO ?
> 10 µM

----------
Target: Histone deacetylase 5 (Homo sapiens)
Experiment: Inhibition of human recombinant C-terminal His-tagged HDAC5 (657 to 1123 residues) expressed in insect cells using Boc-K(TFA)-AMC as substrate incubated for 60 mins by fluorescence assay
Measurement kind: IC50 (µM)
Numeric only. Scale: µM

Would you mind telling me what IC50 value was observed for O=C(CCCc1csc(/C=C/c2ccccc2)n1)NO ?
26.6

----------
Target: Histone deacetylase 11 (Homo sapiens, UniProt Q96DB2)
Sequence (Q96DB2 whole entry): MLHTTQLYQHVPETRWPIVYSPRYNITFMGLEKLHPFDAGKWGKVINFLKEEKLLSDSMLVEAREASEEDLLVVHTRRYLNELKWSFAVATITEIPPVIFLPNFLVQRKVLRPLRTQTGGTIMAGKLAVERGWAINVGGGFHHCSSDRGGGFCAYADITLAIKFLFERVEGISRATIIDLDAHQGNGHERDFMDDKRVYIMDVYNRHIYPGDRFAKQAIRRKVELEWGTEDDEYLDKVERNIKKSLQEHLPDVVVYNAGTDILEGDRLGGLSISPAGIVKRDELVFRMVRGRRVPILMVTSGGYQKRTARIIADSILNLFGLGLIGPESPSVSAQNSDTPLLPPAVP
Assay: Inhibition of human recombinant N-terminal His-tagged HDAC11 (1 to 347 residues) expressed in insect cells/baculovirus expression system using RHK-K(Ac)-AMC as substrate by fluorescence assay
Measurement kind: IC50
Answer with the value and then the unit.

Would you mind telling me what IC50 value was observed for O=C(CCCc1csc(/C=C/c2ccccc2)n1)NO ?
32.8 µM

----------
Target: Histone deacetylase 8 (Homo sapiens, UniProt Q9BY41)
Sequence (Q9BY41 whole entry, the tested form may be a part): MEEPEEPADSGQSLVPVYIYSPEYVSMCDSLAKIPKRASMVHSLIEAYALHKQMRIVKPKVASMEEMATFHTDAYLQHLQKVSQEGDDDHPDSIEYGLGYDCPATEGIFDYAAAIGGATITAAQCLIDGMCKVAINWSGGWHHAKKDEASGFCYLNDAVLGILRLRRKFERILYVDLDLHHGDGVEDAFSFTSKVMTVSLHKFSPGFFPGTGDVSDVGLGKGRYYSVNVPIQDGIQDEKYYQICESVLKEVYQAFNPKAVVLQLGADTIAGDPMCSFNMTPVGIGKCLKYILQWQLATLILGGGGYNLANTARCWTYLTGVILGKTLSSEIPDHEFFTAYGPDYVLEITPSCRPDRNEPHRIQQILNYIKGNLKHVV
Experiment: Inhibition of human recombinant C-terminal His-tagged HDAC8 (1 to 377 residues) expressed in insect cells using RHK-K(Ac)-K(Ac)-AMC as substrate incubated for 60 mins by fluorescence assay
Measurement kind: IC50 (nM)
Numeric only. Scale: nM

Kindly state the measured IC50 obtained for O=C(CCCc1csc(/C=C/c2ccccc2)n1)NO with Histone deacetylase 8 (Homo sapiens, UniProt Q9BY41).
1540

----------
Target: Histone deacetylase
Type: cell-based, Homo sapiens
Settings: hela
IC50 by entry:
Numeric only. Scale: µM

The examples below pair each entry with its known result.
structure_smiles=Cc1ncsc1CCn1cc(NC(=O)CCS/C=C\c2ccccc2)cn1 measurement_kind=IC50 value_reported=29.8
structure_smiles=O=C(CCCc1csc(/C=C/c2ccccc2)n1)NO measurement_kind=IC50 value_reported=1.48

Would you mind telling me what IC50 value was observed for O=C(CCS/C=C/c1ccccc1)NO ?
3.7

Would you mind telling me what IC50 value was observed for O=C(CCS/C=C/c1ccccc1)NCCSCc1ccco1 ?
19.18

----------
Target: Protein deacetylase HDAC6 (Homo sapiens)
Sequence (Q9UBN7 whole entry): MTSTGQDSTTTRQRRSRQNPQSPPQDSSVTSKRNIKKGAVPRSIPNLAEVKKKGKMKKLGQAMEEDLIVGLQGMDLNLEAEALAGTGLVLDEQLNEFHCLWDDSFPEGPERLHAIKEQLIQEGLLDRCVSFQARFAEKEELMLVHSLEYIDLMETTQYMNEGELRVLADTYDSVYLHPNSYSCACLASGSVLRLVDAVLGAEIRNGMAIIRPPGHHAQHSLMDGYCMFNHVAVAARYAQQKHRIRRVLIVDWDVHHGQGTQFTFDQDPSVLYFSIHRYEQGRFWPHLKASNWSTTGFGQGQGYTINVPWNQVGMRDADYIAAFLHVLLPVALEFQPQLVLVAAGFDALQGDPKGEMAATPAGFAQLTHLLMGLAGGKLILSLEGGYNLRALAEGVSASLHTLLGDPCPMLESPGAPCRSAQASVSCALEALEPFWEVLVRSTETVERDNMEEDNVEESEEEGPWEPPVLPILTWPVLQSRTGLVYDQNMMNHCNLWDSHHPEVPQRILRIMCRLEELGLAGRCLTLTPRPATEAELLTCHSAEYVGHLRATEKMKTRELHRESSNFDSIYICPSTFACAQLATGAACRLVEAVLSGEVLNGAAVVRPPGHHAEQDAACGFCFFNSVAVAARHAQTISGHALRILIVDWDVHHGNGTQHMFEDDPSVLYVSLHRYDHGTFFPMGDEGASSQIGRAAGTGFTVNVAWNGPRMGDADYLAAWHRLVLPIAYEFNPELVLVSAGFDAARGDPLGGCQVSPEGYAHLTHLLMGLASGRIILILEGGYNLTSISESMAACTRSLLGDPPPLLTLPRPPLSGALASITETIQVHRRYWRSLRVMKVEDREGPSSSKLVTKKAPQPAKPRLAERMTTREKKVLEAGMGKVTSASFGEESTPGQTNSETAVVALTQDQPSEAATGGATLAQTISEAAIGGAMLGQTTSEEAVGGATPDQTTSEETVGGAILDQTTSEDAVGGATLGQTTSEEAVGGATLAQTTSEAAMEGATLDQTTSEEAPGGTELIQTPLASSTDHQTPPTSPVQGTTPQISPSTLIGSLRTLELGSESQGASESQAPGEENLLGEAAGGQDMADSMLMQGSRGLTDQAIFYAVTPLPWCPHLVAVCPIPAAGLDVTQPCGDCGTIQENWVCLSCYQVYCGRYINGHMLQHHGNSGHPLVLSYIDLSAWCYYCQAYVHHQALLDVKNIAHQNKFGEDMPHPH
Assay: Inhibition of recombinant human HDAC6 using Fluor de Lys-SIRT1 as substrate incubated for 15 mins by fluorescence assay
Measurement kind: IC50 (nM)
Numeric only. Scale: nM

Would you mind telling me what IC50 value was observed for O=C(CCCc1csc(/C=C/c2ccccc2)n1)NO ?
199

Data origin, for the record: ChEMBL document CHEMBL3792358
